Test system: HCT-8 cells
Assay: WST-1 cytotoxicity assay in HCT-8 cells
Type: cell-based, human
Settings: 24 h, read-out: Mean IC50 ± SEM, Cytotoxicity

| COMPOUND | IC50, µM |
| --- | --- |
| COc1ccc(-c2c(C)c(C(=O)O)nc(-c3ccc4c(O)c(OC)c5c(c4n3)=NC(C)(C)N=5)c2N)c(O)c1OC | 299 |
| CO[C@@H]1/C=C/O[C@@]2(C)Oc3c(C)c(O)c4c(c3C2=O)C(=N[C@@H]2CC[C@@H](O)O[C@H]2C)C=C(NC(=O)/C(C)=C\C(=O)[C@@H]2C[C@@H]2[C@H](O)[C@@H](C)[C@@H](O)[C@@H](C)[C@H](OC(C)=O)[C@@H]1C)C4=O | 85.5 |
| CO[C@H]1/C=C/O[C@@]2(C)Oc3c(C)c(O)c4c(O)c(cc(O)c4c3C2=O)NC(=O)/C(C)=C\C=C\[C@H](C)[C@H](O)[C@@H](C)[C@@H](O)[C@@H](C)[C@H](OC(C)=O)[C@@H]1C | 102 |
| COc1cc(C)c2c(c1C=O)Oc1c(c(C)c(O)c3c1C(O)OC3=O)OC2=O (centres unmarked) | 172 |
| CO[C@@H]1/C=C\O[C@]2(C)Oc3c(C)c(O)c4c(O)c(c(CN(C)C)c(O)c4c3C2=O)NC(=O)/C(C)=C\C=C[C@@H](C)[C@@H](O)[C@H](C)[C@@H](O)[C@H](C)[C@H](OC(C)=O)[C@@H]1C | 302 |

---

Selectivity index (SI) AcPMT1 reference
Molecular target: AcPMT1 (Ancylostoma duodenale, UniProt A0A0C2DEB6);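 also: cytotoxicity IC50 measured in HCT-8 cells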
Sequence (A0A0C2DEB6 entry or part of it): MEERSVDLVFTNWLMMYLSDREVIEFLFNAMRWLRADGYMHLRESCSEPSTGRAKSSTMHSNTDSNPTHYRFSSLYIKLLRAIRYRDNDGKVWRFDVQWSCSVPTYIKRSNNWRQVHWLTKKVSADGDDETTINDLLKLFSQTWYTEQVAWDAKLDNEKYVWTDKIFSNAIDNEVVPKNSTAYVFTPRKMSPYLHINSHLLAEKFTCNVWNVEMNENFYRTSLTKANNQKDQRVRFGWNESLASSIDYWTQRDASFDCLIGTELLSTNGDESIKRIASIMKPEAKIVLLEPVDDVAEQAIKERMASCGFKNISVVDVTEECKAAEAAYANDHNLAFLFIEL
Experiment: biochemical
Type: biochemical
Conditions: IC50^Cytotoxicity/IC50^Enzyme
METRIC: Selectivity index (SI) AcPMT1

| MOL | METRIC | REPORTED_MEASUREMENT |
| --- | --- | --- |
| CO[C@@H]1/C=C\O[C@]2(C)Oc3c(C)c(O)c4c(O)c(c(CN(C)C)c(O)c4c3C2=O)NC(=O)/C(C)=C\C=C[C@@H](C)[C@@H](O)[C@H](C)[C@@H](O)[C@H](C)[C@H](OC(C)=O)[C@@H]1C | Selectivity index (SI) AcPMT1 | 11.05 |
| CO[C@@H]1/C=C/O[C@@]2(C)Oc3c(C)c(O)c4c(c3C2=O)C(=N[C@@H]2CC[C@@H](O)O[C@H]2C)C=C(NC(=O)/C(C)=C\C(=O)[C@@H]2C[C@@H]2[C@H](O)[C@@H](C)[C@@H](O)[C@@H](C)[C@H](OC(C)=O)[C@@H]1C)C4=O | Selectivity index (SI) AcPMT1 | 5.76 |

---

Selectivity index (SI) DvPMT1 reference
Biological target: DvPMT1 (Dictyocaulus viviparus, UniProt A0A0D8Y714);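 also: cytotoxicity IC50 measured in HCT-8 cells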
Sequence (A0A0D8Y714 entry or part of it): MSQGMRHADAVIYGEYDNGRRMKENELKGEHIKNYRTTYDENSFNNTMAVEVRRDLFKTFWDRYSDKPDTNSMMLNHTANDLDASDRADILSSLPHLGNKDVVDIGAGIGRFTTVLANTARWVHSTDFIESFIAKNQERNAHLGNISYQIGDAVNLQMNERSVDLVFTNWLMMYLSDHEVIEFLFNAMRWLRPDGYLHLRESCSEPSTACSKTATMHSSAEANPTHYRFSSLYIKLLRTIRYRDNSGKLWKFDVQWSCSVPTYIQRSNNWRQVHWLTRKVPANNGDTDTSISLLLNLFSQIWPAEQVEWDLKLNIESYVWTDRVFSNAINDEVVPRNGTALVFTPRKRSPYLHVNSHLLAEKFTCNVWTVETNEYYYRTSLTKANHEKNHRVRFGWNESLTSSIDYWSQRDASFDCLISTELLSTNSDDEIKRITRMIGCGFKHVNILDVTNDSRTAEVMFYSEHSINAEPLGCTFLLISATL
Experiment: biochemical
Assay type: biochemical
Details: IC50^Cytotoxicity/IC50^Enzyme

| COMPOUND | Selectivity index (SI) DvPMT1 |
| --- | --- |
| O=c1c(O)cccc2cc(O)c(O)c(O)c12 [NSC35676, purpurogallin] | 13.44 |
| CO[C@@]12[C@H](COC(N)=O)C3=C(C(=O)C(C)=C(N)C3=O)N1C[C@H]1[C@@H]2N1C (stereo partly shown) [NSC56410] | 0.10 |
| CO[C@@H]1/C=C/O[C@@]2(C)Oc3c(C)c(O)c4c(c3C2=O)C(=N[C@@H]2CC[C@@H](O)O[C@H]2C)C=C(NC(=O)/C(C)=C\C(=O)[C@@H]2C[C@@H]2[C@H](O)[C@@H](C)[C@@H](O)[C@@H](C)[C@H](OC(C)=O)[C@@H]1C)C4=O [NSC177383] | 1.80 |
| CO[C@H]1/C=C/O[C@@]2(C)Oc3c(C)c(O)c4c(O)c(cc(O)c4c3C2=O)NC(=O)/C(C)=C\C=C\[C@H](C)[C@H](O)[C@@H](C)[C@@H](O)[C@@H](C)[C@H](OC(C)=O)[C@@H]1C [NSC133100] | 1.15 |
| CO[C@@H]1/C=C\O[C@]2(C)Oc3c(C)c(O)c4c(O)c(c(CN(C)C)c(O)c4c3C2=O)NC(=O)/C(C)=C\C=C[C@@H](C)[C@@H](O)[C@H](C)[C@@H](O)[C@H](C)[C@H](OC(C)=O)[C@@H]1C [NSC145612] | 5.49 |
| COc1ccc(-c2c(C)c(C(=O)O)nc(-c3ccc4c(O)c(OC)c5c(c4n3)=NC(C)(C)N=5)c2N)c(O)c1OC [NSC62709] | 10.24 |
| COc1cc(C)c2c(c1C=O)Oc1c(c(C)c(O)c3c1C(O)OC3=O)OC2=O (stereo not shown) [NSC87511] | 0.34 |
